- Test target: lysozyme (Gallus gallus, UniProt P00698)
- Sequence (P00698 19-147): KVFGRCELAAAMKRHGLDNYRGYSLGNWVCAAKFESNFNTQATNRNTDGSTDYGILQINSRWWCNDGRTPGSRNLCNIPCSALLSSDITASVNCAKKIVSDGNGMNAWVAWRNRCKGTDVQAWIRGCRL
- Assay protocol: SPR adsorption of lysozyme to SAMs / grafted polymer films
- Format: binding
- Experimental setup: mixed SAM —CONRR′/—CO2H; 1 mg/mL lysozyme flowed 30 min
Where a SMILES comes first, the peptide text is derived from it.
Attribute measured: % MLlys 30 min (%)
Just the number please, in %, no unit attached.

Please list % MLlys 30 min recorded for the compound N#CCNCC#N [HN(CH2CN)2]
92

Please list % MLlys 30 min recorded for the compound `CNCCNC`
7.8

Please list % MLlys 30 min recorded for the compound CN(C)C(=O)CNC(=O)CNC(=O)CN [H2N(Gly)3N(CH3)2] (H-Gly-Gly-Gly-NMe2)
8.8

Please list % MLlys 30 min recorded for the compound `CC(=O)NCCN`
5.4

Please list % MLlys 30 min recorded for the compound `Nc1ccc(O[C@@H]2O[C@H](CO)[C@@H](O[C@@H]3O[C@H](CO)[C@H](O)[C@H](O)[C@H]3O)[C@H](O)[C@H]2O)cc1`
9.3

Please list % MLlys 30 min recorded for the compound `N#CCC(N)=C(C#N)C#N`
28

Please list % MLlys 30 min recorded for the compound `CN1CCNCC1`
1.0

###

- Test target: lysozyme (Gallus gallus, UniProt P00698)
- Assay protocol: SPR adsorption of lysozyme to SAMs / grafted polymer films
- Assay type: binding
- Experimental setup: mixed SAM —CONRR′/—CO2H; 1 mg/mL lysozyme flowed 3 min
Where a SMILES comes first, the peptide text is derived from it. [ ]: non-standard residue; d: D form. Sar = CNCC(=O)O
Classify: Satisfied when % MLlys 3 min is strictly less than 4%; Not satisfied when % MLlys 3 min is not.

Item `C[N+](C)(C)CCN.[Cl-]` : % MLlys 3 min beneath 4%, strictly?
Satisfied

Item `CN1CCNCC1` : % MLlys 3 min beneath 4%, strictly?
Satisfied

Item `O=CN1CCNCC1` : % MLlys 3 min beneath 4%, strictly?
Not satisfied

Item `CC(=O)CCN` : % MLlys 3 min beneath 4%, strictly?
Not satisfied

Item `C1COCCOCCOCCOCCOCCN1` : % MLlys 3 min beneath 4%, strictly?
Satisfied

Item `CC(=O)N1CCNCC1` : % MLlys 3 min beneath 4%, strictly?
Not satisfied

Item `CC(=O)NCCN` : % MLlys 3 min beneath 4%, strictly?
Satisfied

Item `Nc1ccc(O[C@@H]2O[C@H](CO)[C@@H](O[C@@H]3O[C@H](CO)[C@H](O)[C@H](O)[C@H]3O)[C@H](O)[C@H]2O)cc1` : % MLlys 3 min beneath 4%, strictly?
Satisfied

Item `CNCCN(C)C` : % MLlys 3 min beneath 4%, strictly?
Satisfied

Item `CNCCN(C)C(C)=O` : % MLlys 3 min beneath 4%, strictly?
Satisfied

Item `CNCC(=O)N(C)C` : % MLlys 3 min beneath 4%, strictly?
Satisfied

Item NC(CCCO)(CCCO)CCCO [H2NC(CH2CH2CH2OH)3] : % MLlys 3 min beneath 4%, strictly?
Not satisfied

Item N#CCCNCCC#N [HN(CH2CH2CN)2] : % MLlys 3 min beneath 4%, strictly?
Not satisfied

Item `CNC[C@H](OC)[C@H](OC)[C@H](OC)[C@H](COC)OC` : % MLlys 3 min beneath 4%, strictly?
Satisfied

Item `OCCOCCN1CCNCC1` : % MLlys 3 min beneath 4%, strictly?
Not satisfied

Item `N#CCC(N)=C(C#N)C#N` : % MLlys 3 min beneath 4%, strictly?
Not satisfied

Item `CNCCN(C)C(=O)N(C)C` : % MLlys 3 min beneath 4%, strictly?
Satisfied

Item CNCC(=O)N(C)CC(=O)N(C)CC(=O)N(C)CC(=O)N(C)CC(=O)N(C)C [H(CH3)N(Sar)5N(CH3)2] : % MLlys 3 min beneath 4%, strictly?
Satisfied

Item `Nc1ccc(O[C@@H]2O[C@H](CO)[C@H](O)[C@H](O)[C@H]2O)cc1` : % MLlys 3 min beneath 4%, strictly?
Not satisfied

Item `CNCCN(C)C(=O)OC` : % MLlys 3 min beneath 4%, strictly?
Not satisfied

Item `NC[C@H](O)[C@H](O)[C@H](O)[C@@H](O)CO` : % MLlys 3 min beneath 4%, strictly?
Not satisfied

Item CN(C)C(=O)CNC(=O)CNC(=O)CN [H2N(Gly)3N(CH3)2] (H-Gly-Gly-Gly-NMe2) : % MLlys 3 min beneath 4%, strictly?
Satisfied

Item N#CCNCC#N [HN(CH2CN)2] : % MLlys 3 min beneath 4%, strictly?
Not satisfied

Item N[C@H]1C(O)O[C@H](CO)[C@@H](O)[C@@H]1O (some centres unmarked) : % MLlys 3 min beneath 4%, strictly?
Not satisfied

Item `CNCCN(C)P(=O)(N(C)C)N(C)C` : % MLlys 3 min beneath 4%, strictly?
Satisfied

Item CNCC(=O)N(C)CC(=O)N(C)CC(=O)N(C)CC(=O)N(C)C [H(CH3)N(Sar)4N(CH3)2] (H-[Sar][Sar][Sar][Sar]-NMe2) : % MLlys 3 min beneath 4%, strictly?
Satisfied

Reference for the values: patent US7494714B2
